Reported median fluorescence values follow for various binders
# STUDY TARGET: T1, FZD3 cysteine-rich domain (CRD), MYC-tagged and GPI-anchored on CHO cells (human, UniProt Q9NPG1 24-150, GPI anchor)
# T1 construct: domain: cysteine-rich domain (CRD); also called FZD3 CRD; CHO-myc-FZDGPI; not shown: MYC tag and GPI anchor signal
# T1 sequence (looked up): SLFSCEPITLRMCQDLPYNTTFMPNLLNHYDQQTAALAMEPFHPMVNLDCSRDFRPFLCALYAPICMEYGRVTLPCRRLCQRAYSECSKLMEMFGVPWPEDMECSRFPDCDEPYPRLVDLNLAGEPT
# ASSAY REMARKS: flow cytometry, CHO-CRD cells;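 further: flow cytometry of Fab binding to CHO cells overexpressing a Frizzled CRD, with binding defined as median fluorescence over twice that of CHO cells lacking any Frizzled CRD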

{"columns": ["BINDER", "median fluorescence"],
 "data": [
  ["Fab-2909 (Fab, V domains shown, Fab; also called Fv-2909) VH: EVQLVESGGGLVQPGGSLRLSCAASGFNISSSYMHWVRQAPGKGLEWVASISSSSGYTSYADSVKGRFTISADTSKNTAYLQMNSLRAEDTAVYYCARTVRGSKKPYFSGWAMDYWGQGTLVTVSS VL: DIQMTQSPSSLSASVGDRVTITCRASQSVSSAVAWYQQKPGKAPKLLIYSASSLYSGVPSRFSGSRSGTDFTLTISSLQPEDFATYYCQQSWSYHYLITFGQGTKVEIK", 3.43],
  ["Fab-2921 (Fab, V domains shown, Fab) VH: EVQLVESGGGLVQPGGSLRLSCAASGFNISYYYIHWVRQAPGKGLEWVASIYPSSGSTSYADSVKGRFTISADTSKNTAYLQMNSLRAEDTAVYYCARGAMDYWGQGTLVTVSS VL: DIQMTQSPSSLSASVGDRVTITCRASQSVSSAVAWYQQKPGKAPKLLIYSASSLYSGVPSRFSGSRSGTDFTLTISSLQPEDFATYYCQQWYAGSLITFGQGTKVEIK", 3.59],
  ["Fab-2931 (Fab, V domains shown, Fab; also called Fv-2931) VH: EVQLVESGGGLVQPGGSLRLSCAASGFNLSYSSMHWVRQAPGKGLEWVAYISPYSGSTYYADSVKGRFTISADTSKNTAYLQMNSLRAEDTAVYYCARGSYWYVGGGWWVSGHGGMDYWGQGTLVTVSS VL: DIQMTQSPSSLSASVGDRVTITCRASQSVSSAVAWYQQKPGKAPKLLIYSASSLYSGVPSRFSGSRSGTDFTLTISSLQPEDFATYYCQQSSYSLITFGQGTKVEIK", 3.49]
]}
